Test system: MCF7 breast
Test: NCI tumour cell line growth inhibition, 48 h
endpoint: TGI

Field: example entries. Status: answers known.
| molecule | TGI |
| --- | --- |
| C(=Nc1nc(SCc2ccccc2)nc2[nH]ncc12)c1cccs1 | > 100 µM |
| NNc1nnc(CCCCCCCCc2nnc(NN)n2N)n1N | > 100 µM |
| COC(=O)C1CCC(=O)N1CN(C(C)=O)c1cccc(O)c1 (stereo unspecified) | > 100 µM |
| CN=c1sc2c(n1C)C(=O)c1ccccc1C2=O | 3.8 µM |
| COC(=O)/C=C/c1ccc(OP(=O)(O)O)c(OC)c1 | > 100 µM |
| Cn1c2ccccc2c(=O)c2c(O)cc3c(c21)C1OCC(C)(O)C1O3 (stereo unspecified) | > 100 µM |
| O=c1c(-c2ccccc2)nnc2n(Cc3ccccc3)c3ccccc3n12 | > 100 µM |
| O=C(c1ccc(Cl)cc1)N(C(=O)N1CCCCC1)c1ccccc1 | > 100 µM |

Q) Test system MCF7 breast; read-out TGI; what value for O=C(O)CCCc1ccc2c(c1)CC1(C2)Cc2cc3c(cc2C1)CCCC3 ?
A) 94.2 µM

Q) Enter reported TGI observed with MCF7 breast for COc1ccc(C(O)c2cc3c(N)c(C(=O)Nc4cccc5ccccc45)sc3nc2C)cc1 (stereo unspecified)
A) > 90.9 µM

Q) Observed TGI on MCF7 breast for CC(C)(C)OC(=O)N(CCCCNC(=O)C(F)(F)F)CCCNC(=O)C(F)(F)F , please.
A) > 100 µM

* * *

Listing of recorded TGI by entry.
System: ACHN renal
Assay: NCI tumour cell line growth inhibition, 48 h

Worked cases, answers included:
| compound | value |
| --- | --- |
| O=NN(CCCl)C(=O)NC1CCC(CC(=O)O)CC1 (stereo not given) | > 100 µM |
| CCCCCCCCOCC(COC(=O)CCCCCCC)OC(=O)CCCCCCC (stereo not given) | > 100 µM |
| CC(SC(=S)N1CCOCC1)C(=O)Nc1nnc(-c2ccc(Cl)cc2)o1 (stereo not given) | > 100 µM |
| O=C1NC(=O)C2C(=O)NC(=O)C1C2Cc1ccco1 (stereo not given) | > 100 µM |
| CC(=O)Nc1ccc(C2CC(c3ccc([N+](=O)[O-])cc3)=Nc3ccccc3S2=O)cc1 (stereo not given) | 51.8 µM |
| Cn1c(CNc2ccc(-c3n[nH]c(=S)n3C)cc2)n[nH]c1=S | > 100 µM |

Q) Give the measured TGI of COC12C(COC(=O)NCCO)C3=C(C(=O)C(C)=C(N)C3=O)N1CC1NC12 (stereo not given) .
A) 142 µM

Q) Which TGI reading was recorded for the compound COC(=O)C1=C(C(=O)OC)C2(c3ccccc3)OC1(c1ccccc1)c1cc3ccccc3cc12 ?
A) 3.07 µM

Q) What value of TGI has been recorded for this entry: Cc1ccc(S(=O)(=O)OC2CC(C(C)(C)C)CCC2c2ccccc2)cc1 (stereo not given)
A) > 100 µM

Q) What value of TGI has been recorded for this entry: Cn1c(=O)c2nc3sc4c(n3c2n(C)c1=O)C(=O)c1ccccc1C4=O
A) > 54.7 µM

* * *

Test system: IGROV1 ovarian
Experiment: NCI tumour cell line growth inhibition, 48 h
# Lookup of reported TGI keyed by entry

Examples with their reported TGI follow.
| molecule | value |
| --- | --- |
| CN(C)c1ccc(-c2cc(-c3ccc(Nc4nc(Nc5ccc(Cl)cc5)nc(Nc5ccc(Cl)cc5)n4)cc3)nc(N)c2C#N)cc1 | > 100 µM |
| CC(N)(CC(O)(C(F)(F)Cl)C(F)(F)Cl)C(=O)O (centres undefined) | > 10 µM |
| Cc1ccc(OCC2OC(n3cnc4c(Cl)nc(Nc5cc(Cl)cc(Cl)c5)nc43)CC2Oc2ccc(C)cc2)cc1 (centres undefined) | > 100 µM |
| O=C1NC(=O)C2C(=O)NC(=O)C1C2Cc1ccco1 (centres undefined) | > 100 µM |
| CNCc1ccc(-c2cc(-c3nc(-c4ccc(S(=O)(=O)C(C)C)cc4)cnc3N)on2)cc1 | 10.5 µM |
| COc1ccc(OC)c2sc(N3C(=O)/C(=C/c4cccc(Oc5ccccc5)c4)N=C3c3ccccc3)nc12 | > 100 µM |
| Cc1ccc(S[C@@](C=O)(NC(=O)OCc2ccccc2)C(F)(F)F)cc1 | 54.3 µM |
| C(=Nc1nc(SCc2ccccc2)nc2[nH]ncc12)c1cccs1 | > 100 µM |

Now turn to the next molecule.
Q) Please state recorded TGI (tested on IGROV1 ovarian) of C=C1CC[C@@H](CCC2CCC3(OC2)O[C@]2(O)CC[C@@]3(C)OC2(C)C)C(C)(C)[C@H]1C/C=C1\CCOC1=O (some centres undefined)
A) > 100 µM

* * *

# maps each entry to its GI50
System: OVCAR-3 ovarian
Assay: NCI tumour cell line growth inhibition, 48 h

Q) I'd like to know its GI50. The compound in question is CNCc1ccc(-c2cc(-c3nc(-c4ccc(S(=O)(=O)C(C)C)cc4)cnc3N)on2)cc1
A) 2930 nM

Q) Requested field: GI50. Item: C=C(C#N)C(=O)OCC(CC)CC.C=C(C#N)C(=O)OCC(CC)CC.CS(C)=O.CS(C)=O.Nc1c(N=Nc2ccc(-c3ccc(N=Nc4cc(S(=O)(=O)[O-])c5ccccc5c4N)cc3)cc2)cc(S(=O)(=O)[O-])c2ccccc12.[Pt+2]
A) 25900 nM

Q) // query GI50 value for entry CCSCC1CC(O)(c2ccccc2)C(c2ccccc2)C(c2ccc(F)cc2)O1 (stereo not drawn)
A) 2190 nM

* * *

System: SF-268 CNS
Assay: NCI tumour cell line growth inhibition, 48 h; in the data active means GI50 below about 0.43 µM; inactive means the rest
Write down one outcome, taken from active, inactive

Q) How was Cc1cccc(Cn2cc(CO)c3cnccc32)c1 classified in this test?
A) inactive

Q) Hi, do you know how CCSCC1CC(O)(c2ccccc2)C(c2ccccc2)C(c2ccc(F)cc2)O1 (configuration not stated) came out in this test?
A) inactive

* * *

System: UACC-257 melanoma
Experiment: NCI tumour cell line growth inhibition, 48 h
The following compounds are shown together with reported TGI values.

A selection of reference data follows.
| compound | value |
| --- | --- |
| CN1CCOC(C(NC(=O)c2ccccc2)c2ccccc2)C1=O (configuration not stated) | > 100 µM |
| C=CCON(C(=O)OC(C)(C)C)C(C)(C)C | > 100 µM |
| NCCOc1cccc(C2(N3CCCCC3)CCCCC2)c1 | 34 µM |
| COc1ccc(/C=C2\C(=O)N(NC(C)=O)c3ccccc32)cc1 | > 100 µM |

Q) So what's the measured TGI for this one? COc1ccc(-c2c(C3=NCCCN3)nnn2-c2ccccc2)cc1
A) > 100 µM

Q) For the compound shown here, COc1ccc2nc(NC(=O)C(=O)CC(=O)c3ccc([N+](=O)[O-])cc3)sc2c1 , give the reported TGI.
A) > 100 µM

* * *

Tested on: NCI-H23 lung
Assay: NCI tumour cell line growth inhibition, 48 h; in the data active = GI50 below about 0.43 µM; inactive = the rest
Answer with one of the outcomes true (1) for active, false (0) for inactive

Below, 5 molecules whose answers are already recorded.
| molecule | discrete.label |
| --- | --- |
| Cc1cc(Cl)nc(N(CCNc2ccnc3cc(Cl)ccc23)Cc2ccco2)n1 | false (0) |
| CCN(CC)c1ccc2nc3ccc(=[N+](CC)CC)cc-3oc2c1 | true (1) |
| ClCCOCCn1cnc2c(Cl)nc(Cl)nc21 | false (0) |
| OCCCCC#Cc1ccccc1C#Cc1cccc(C(F)(F)F)c1 | false (0) |
| O=C1c2cc3c(cc2-c2c1c1ccc(Cl)cc1c(=O)n2C[C@H](O)CO)OCO3 | true (1) |

Q) Which result was noted for this molecule in the test: CCCCCCCCCCCCCCNC(=O)Nc1ccc(Cl)c(Cl)c1
A) false (0)

* * *

System: NCI-H522 lung
Test: NCI tumour cell line growth inhibition, 48 h
Consider the following molecules and their measured TGI readings.

Worked examples follow.
| molecule | assayed.system | endpoint | value |
| --- | --- | --- | --- |
| COc1cc(OC)c(OC)cc1/C=C/c1nc2ccccc2s1 | NCI-H522 lung | TGI | > 100 µM |
| C[C@@H](CC(=O)OCc1ccccc1)OC1OC(COC(=O)C(C)(C)C)C(OC(=O)C(C)(C)C)C(OC(=O)C(C)(C)C)C1OC(=O)C(C)(C)C (stereo partly specified) | NCI-H522 lung | TGI | > 100 µM |
| CC(C)(C)OC(=O)N(CCCCNC(=O)C(F)(F)F)CCCNC(=O)C(F)(F)F | NCI-H522 lung | TGI | > 100 µM |
| O=c1[nH]c2[nH]c(=S)[nH]c(=S)c2[nH]1 | NCI-H522 lung | TGI | > 100 µM |
| Cc1ccc(N=N/C(=N/NC(=O)c2ccccc2)c2ccc(N(CCC#N)CCC#N)cc2C)cc1 | NCI-H522 lung | TGI | 42.2 µM |

Q) Consider the molecule Cn1c(=O)c2nc3sc4c(n3c2n(C)c1=O)C(=O)c1ccccc1C4=O and give its measured TGI.
A) 27.9 µM

Q) Data request, read-out TGI, for N#Cc1c(NC(=O)C(F)(F)F)sc2c3c(=O)c4ccccc4c(=O)c=3oc3ccccc3c12
A) 32.6 µM

Q) Look up TGI for this molecule: O=C(Nn1c(-c2ccccc2)nc2ccccc2c1=O)c1ccc(Cl)cc1
A) > 100 µM

Q) Which measured TGI value corresponds to C=C1CC[C@@H](CCC2CCC3(OC2)O[C@]2(O)CC[C@@]3(C)OC2(C)C)C(C)(C)[C@H]1C/C=C1\CCOC1=O (stereo partly specified) ?
A) > 58.9 µM

Q) Look at this molecule and give its reported TGI. COCCOC1=C(Cl)C(=O)c2ccccc2C1=O
A) 2.9 µM

Q) // returns reported TGI for input O=[N+]([O-])c1cccc2nc3ccccc3c(NCCCCCNc3c4ccccc4nc4cccc([N+](=O)[O-])c34)c12
A) 0.388 µM

Q) Requested read-out: TGI. Entry: O=C1C(Cl)N(c2ccccc2Cl)C1c1c[nH]c2ccccc12 (stereo unspecified)
A) > 100 µM

Q) Value lookup for TGI; key = Cc1cc2nc3c(C#N)c(-c4ccccc4)/c(=C\Nc4ccc(F)cc4)c(=O)n3c2cc1C
A) > 100 µM

Q) // TGI lookup, key: C=CCC(CCC(C)=O)(C(=O)OCC)C(=O)OCC
A) > 100 µM

Q) I would be grateful if you could share the reported TGI for CCCC(=O)CC(C)C(=O)C(=O)NC12CC3CC(CC(C3)C1)C2 (stereo unspecified) .
A) > 100 µM
